# System: corn (Zea mays)
# assay notes: Test G Pre-Emergence Protocol
# Assay type: in vivo
# conditions used: Zea mays, pre-emergence, 312 h, 250 g ai/ha, evaluated after 13 days, read-out: Corn damage rating (100=total damage to plant; 0=no damage to plant)
# reported plant injury at 250 g/ha; entries follow

{"compound": "CCOC(=O)c1cccc([C@H]2CN(C)C(=O)[C@@H]2C(=O)Nc2ccccc2F)c1 (racemic)", "plant injury at 250 g/ha (%)": 0}
{"compound": "COc1cc(C2CN(C)C(=O)C2C(=O)Nc2cccc(F)c2F)cc(C)c1C (stereo not shown)", "plant injury at 250 g/ha (%)": 90}
{"compound": "CN1C[C@@H](c2ccc(C(F)(F)F)cc2)[C@H](C(=O)Nc2cccc3cn[nH]c23)C1=O (racemic)", "plant injury at 250 g/ha (%)": 0}
{"compound": "Cc1c(F)cccc1NC(=O)[C@@H]1C(=O)N(C)C[C@H]1c1cc(Cl)c(F)c(Cl)c1 (racemic)", "plant injury at 250 g/ha (%)": 50}
{"compound": "Cc1c(NC(=O)[C@H]2C(=O)N(C)C[C@@H]2c2ccc(C(F)(F)F)cc2)cccc1[N+](=O)[O-] (racemic)", "plant injury at 250 g/ha (%)": 10}
{"compound": "CN1C[C@H](c2cc(C(C)(C)C)ncn2)[C@@H](C(=O)Nc2cccc(F)c2F)C1=O (racemic)", "plant injury at 250 g/ha (%)": 0}
{"compound": "CN1C[C@@H](c2ccnc(C(F)(F)F)c2)[C@H](C(=O)Nc2cccc(F)c2F)C1=O (racemic)", "plant injury at 250 g/ha (%)": 80}

Measured values drawn from patent US12077503B2 for this set.
